# Assay Comment: differential killing of epithelial or mesenchymal cells, primary screen, imaging, PC-3E GFP, TEM4-18 mCherry, co-culture (AID 1345086);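 further: cells exposed to compound for 72 h before imaging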
# Study Conditions: imaging cell counts, measured here: mesenchymal TEM4-18 mCherry cell survival, at 1 µM
Measured Parameter: normalised cell number
Answers are plain numbers.

Consider the following illustrative entries.
smiles_string=CC[C@H](C)/C=C/C1=CC2=C(Cl)C(=O)[C@@]3(C)OC(=O)C(C(=O)[C@@H](C)[C@@H](C)O)=C3C2=CO1 measured_parameter="normalised cell number" experimental_value=0.91
smiles_string=COc1c(O)cc2c(c1O)[C@H]1O[C@H](CO)[C@@H](O)[C@H](O)[C@@H]1OC2=O measured_parameter="normalised cell number" experimental_value=1.11

Please turn your attention to the following entry.
Asked: Name the recorded normalised cell number of the compound listed here: `C=CC[C@@H]1/C=C(\C)C[C@H](C)C[C@H](OC)[C@H]2O[C@@](O)(C(=O)C(=O)N3CCCC[C@H]3C(=O)O[C@H](/C(C)=C/[C@@H]3CC[C@@H](O)[C@H](OC)C3)[C@H](C)[C@@H](O)CC1=O)[C@H](C)C[C@@H]2OC`
Given back: 0.91
